Overview of recorded EC50 (read off the curve) for various binders
molecular target: T1, human ROR1 on cells (full-length human ROR1 on huROR1-HEK293 cells; human ROR1 on A549 and HT-29 tumor cells) (human, UniProt Q01973 30-937); test: flow cytometry (FACS) on A549 tumor cells, anti-human IgG-Fc secondary antibody, MFI
T1 construct: whole, on cells; also called hROR1-HEK293T; A549 tumor cells
T1 sequence (Q01973 30-937): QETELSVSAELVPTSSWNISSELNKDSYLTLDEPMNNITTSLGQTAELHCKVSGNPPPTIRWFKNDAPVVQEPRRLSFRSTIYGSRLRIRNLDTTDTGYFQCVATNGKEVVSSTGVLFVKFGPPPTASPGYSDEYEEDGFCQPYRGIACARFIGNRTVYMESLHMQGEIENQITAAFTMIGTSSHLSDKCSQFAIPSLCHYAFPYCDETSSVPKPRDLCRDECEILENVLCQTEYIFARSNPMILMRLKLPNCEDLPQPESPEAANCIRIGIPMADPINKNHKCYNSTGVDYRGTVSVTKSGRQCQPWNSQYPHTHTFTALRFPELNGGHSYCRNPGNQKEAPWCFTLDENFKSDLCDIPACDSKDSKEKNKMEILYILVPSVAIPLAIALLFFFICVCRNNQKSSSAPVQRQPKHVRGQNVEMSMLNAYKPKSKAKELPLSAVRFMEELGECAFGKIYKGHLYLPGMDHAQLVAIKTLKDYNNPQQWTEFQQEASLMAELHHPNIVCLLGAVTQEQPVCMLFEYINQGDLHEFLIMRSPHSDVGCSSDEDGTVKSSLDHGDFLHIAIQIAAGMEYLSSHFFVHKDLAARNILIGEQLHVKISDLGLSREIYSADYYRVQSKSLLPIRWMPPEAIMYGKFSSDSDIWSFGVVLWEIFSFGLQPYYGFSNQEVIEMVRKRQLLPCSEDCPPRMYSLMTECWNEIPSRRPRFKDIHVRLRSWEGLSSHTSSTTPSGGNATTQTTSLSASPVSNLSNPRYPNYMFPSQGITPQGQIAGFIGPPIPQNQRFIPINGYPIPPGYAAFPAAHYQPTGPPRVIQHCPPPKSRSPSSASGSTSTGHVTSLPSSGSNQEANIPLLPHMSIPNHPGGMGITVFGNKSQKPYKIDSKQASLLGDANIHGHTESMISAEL

Below: 5 binders and their reported EC50 (read off the curve).
# BINDER, REPORTED MEASUREMENT
measured = [
    ("B74 (chimeric antibody) (antibody, human IgG1, kappa, V domains shown, ExpiCHO expression) VH: EVMLVESGGNLVKPGGSLKLSCAASGFTFSIYAMSWVRQTPEKRLEWVASISGGGTAYYPDSVKGRFTISRDNARNILYLQMSSLRSEDTAIYYCARGYYYGGSPYWHFDVWGAGTTVTVSS VL: DIKMTQSPSSMYASLGERVTITCKASQDINSYLSWFQQKPGKSPKTLIYRANRLVDGVPSRFSGSGSGQDYSLTISSLEYEDIGIYYCLQIDEFPYTFGGGTKLEIKR", "~0.01 µg/mL"),
    ("B34 (chimeric antibody) (antibody, human IgG1, kappa, V domains shown, ExpiCHO expression) VH: EVQLVESGGGLVQPKGSLKLSCAASGFTFSRYAMSWVRQTPEKRLEWVASISTGGSPYYPDSVKGRFTISRDNARNILYLQMSSLKSEDTAMYYCARGYYYNSSPHWYFAVWGAGTSVTVSS VL: DIQMTQSPSSLSASLGERVTITCKASQDINSYLSWFQQKPGKSPKTLIYRANRLVDGVPSRFSGSGSGQDYSLTISSLEYEDMGIYYCLQYDEFPYTFGGGTKLEIKR", "~0.04 µg/mL"),
    ("B31 (chimeric antibody) (antibody, human IgG1, kappa, V domains shown, ExpiCHO expression) VH: EVMLVESGGGLVKPGGSLKLSCAASGFTFSRYAMSWVRQTPEKRLEWVASISRGGSTYYPDSVKGRFTISRDNARNILYLQMSSLRSEDTAMYYCASYFGNYDAMDYWGQGTSVTVSS VL: DIQMNQSPSSMYASLGERVTITCKASQDINNYVSWFQQKPGKSPKTLIYRANRLVDGVPSRFSGSGSGQDYSFTISSLEYEDMGIYYCLQFDEFPYTFGGGTKLEIKR", "~0.005 µg/mL"),
    ("M78 (chimeric antibody) (antibody, human IgG1, kappa, V domains shown, ExpiCHO expression) VH: EVMLVESGGGLVRPGGSLKLSCAASGFTFSSYAMSWVRQSPEKRLEWVASINRGGTTYYPDSVKGRFTISRDNARDILYLQMSSLRSEDTAIYYCARDYYYGSNLYNGMDYWGQGTSVIVSS VL: DIKITQSPSSMYASLGERVTITCKASQDINSYLSWFQQKPGKSPKTLIYRANRLVDGVPSRFSGSGSGQDYSLTISSLEYEDMGIYYCLQFDEFPYTFGGGTKLEIKR", "~0.02 µg/mL"),
    ("B39 (chimeric antibody) (antibody, human IgG1, kappa, V domains shown, ExpiCHO expression) VH: EVKLVESGGGLVKPGGSLKLSCAASGFTFSTYAMSWVRQTPEKRLEWVASISTGASTYYPDSVKGRFTISRDNARNILYLQMSSLRSEDTAMYYCAREETTTAALYYAMDYWGQGTSVTVSS VL: DIKITQSPSSMYASLGERVTITCKASQDINNYLSWFQQKPGKSPKTLIYRANRLVDGVPSRFSGSGSGQDYSLTISSLEYEDMGIYYCLQFDEFPYTFGGGTKLEIKR", "~0.01 µg/mL"),
]

Shift focus to the following entry.
stdin: Identify the reported EC50 (read off the curve) for the following entry. B32 (chimeric antibody) (antibody, human IgG1, kappa, V domains shown, ExpiCHO expression) VH: EVKLMESGGGLVKPGGSLKLSCAASGFAFSSYAMSWVRQTPDKRLEWVASINRDVTTYYPDSMKGRFTISRDNARNILYLQMSSLRSEDTAMYYCARGYYYGGGPYWHFDVWGAGTTVTVSS VL: DIQITQSPSSMYASLGERVTITCKASQDINSYLTWFQQKPGKSPKTLIYRANRLVDGVPSRFSGSGSGQDYSLTISSLEYEDMGIYYCLQFDEFPYTFGGGTKLEIKR
stdout: ~0.02 µg/mL
